Each item that follows carries a reported TGI.
test system: LOX IMVI melanoma; test: NCI tumour cell line growth inhibition, 48 h
Where a SMILES comes first, the peptide text is derived from it. [ ]: non-standard residue; d: D form. The star is where a group is joined. Nle = CCCC[C@H](N)C(=O)O; Cbz = O=C(OCc1ccccc1)*
measure-name: TGI

# compound, tgt, measured-value
measured = [
    ("COC(=O)c1cc2cc(OC)c(OC)cc2cc(C(=O)OC)c1=O", "LOX IMVI melanoma", "> 100 µM"),
    ("CC1OC2=N[C@@H]1C(=O)N[C@@H](Cc1ccccc1)C1=N[C@H](C(=O)N[C@@H](Cc3ccccc3)C3=N[C@H](C(=O)N[C@H]2Cc2ccccc2)C(C)O3)C(C)O1 (some centres undefined)", "LOX IMVI melanoma", "39.4 µM"),
    ("CCOc1ccc(NC(=O)CC2C(=O)Nc3ccccc3S2=O)cc1 (centres undefined)", "LOX IMVI melanoma", "> 100 µM"),
    ("COc1ccc(-c2c3ccccc3c(-c3ccc(OCCBr)cc3)c3ccccc23)cc1", "LOX IMVI melanoma", "> 100 µM"),
    ("CC12CCC3(C1)[C@H](CC2=O)C[C@@H](OC(=O)c1ccccc1)C1C(C)(CO)CCC[C@@]13C (some centres undefined)", "LOX IMVI melanoma", "> 100 µM"),
    ("COc1cc(Nc2nc3c(N)cc(C(F)(F)F)cc3nc2-c2ccccc2)cc(OC)c1OC", "LOX IMVI melanoma", "> 100 µM"),
    ("N#Cc1c(O)c(C=Nc2ccc(Cl)cc2)c(=O)n2c1[nH]c1ccccc12", "LOX IMVI melanoma", "> 100 µM"),
    ("CC1(C)C2CCC1(C)[C@H](O)[C@H]2Nc1cc(C(F)(F)F)cc(C(F)(F)F)c1 (some centres undefined)", "LOX IMVI melanoma", "10.4 µM"),
    ("CCCC[C@@H](C=O)NC(=O)[C@H](CC(C)C)NC(=O)[C@H](CC(C)C)NC(=O)OCc1ccccc1 (Cbz-Leu-Leu-[Nle]-aldehyde)", "LOX IMVI melanoma", "0.537 µM"),
]

----------
Reported TGI is given for each of the following compounds.
test system: MALME-3M melanoma; assay: NCI tumour cell line growth inhibition, 48 h
Where a SMILES comes first, the peptide text is derived from it. [ ]: non-standard residue; d: D form. The star is where a group is joined. NMeF = CN[CH](Cc1ccccc1)C(=O)O; NMeV = CN[CH](C(=O)O)C(C)C; Boc = CC(C)(C)OC(=O)*

# compound, tgt, TGI
records = [
    ("Nc1nonc1-c1nc2cnccc2n1C1CCCCC1", "MALME-3M melanoma", "> 25 µM"),
    ("C/C=C1/C[C@@H](C)[C@@](C)(O)C(=O)OCC2=CC[N+]3([O-])CC[C@@H](OC1=O)[C@@H]23 (stereo partly drawn)", "MALME-3M melanoma", "> 100 µM"),
    ("O=C(O)c1ccc(C=C2Sc3ccccc3S2)cc1", "MALME-3M melanoma", "> 100 µM"),
    ("Cc1ccc2ccc(O)cc2c1", "MALME-3M melanoma", "> 100 µM"),
    ("CC(C)C(NC(=O)OC(C)(C)C)C(=O)N(C)C(Cc1ccccc1)C(=O)N(C)C(C(=O)N(C)C(C(=O)O)C(C)C)C(C)C (stereo not drawn) (Boc-V[NMeF][NMeV][NMeV]-OH; configuration not given here)", "MALME-3M melanoma", "> 100 µM"),
    ("O=C1OC(c2ccc(O)c(F)c2)(c2ccc(O)c(F)c2)c2cccc3cccc1c23", "MALME-3M melanoma", "> 25 µM"),
    ("O=C(NNc1cn[nH]c(=O)n1)c1cccc2nc3ccccc3nc12", "MALME-3M melanoma", "> 100 µM"),
    ("C[C@]12CC[C@H](O)CC1=CC[C@@H]1C2CC[C@]2(C)NC(=O)C(C#N)CC12 (stereo partly drawn)", "MALME-3M melanoma", "> 100 µM"),
    ("O=C(N/N=C\\c1c(O)ccc2ccccc12)c1ccncc1", "MALME-3M melanoma", "> 7.77 µM"),
    ("O=c1c(Br)c(-c2ccccc2)[nH]c2ccccc12", "MALME-3M melanoma", "> 100 µM"),
    ("Nc1ccc(N)c2c1C(=O)c1ccccc1C2=O", "MALME-3M melanoma", "> 100 µM"),
    ("COc1ccc2c3ccc4c(c3n(C)c2c1)C(=O)C=CC4=O", "MALME-3M melanoma", "> 100 µM"),
    ("COc1ccc(/C(COc2ccc3c(c2)oc(=O)c2cc(OC)ccc23)=N/O)cc1", "MALME-3M melanoma", "> 100 µM"),
]
